System: VchCAST RNA-guided transposition machinery (E. coli BL21(DE3) host, lacZ target)
Experiment: relative integration efficiency (T-RL orientation) vs wild-type transposon end (log2 (normalized fold change)); transposon end mutated: right end (5 bp flank + 75 bp right end); higher = more efficient transposition
// relative integration efficiency (log2) lookup, one value per entry

>  <INPUT SEQUENCE>
ACATTTGTTGATACAACCATAAAATGATAATTACTCTGCACCCATAAATTGATAATTATCAGTGGGTATTTAACTATAACGATCATAGTCAGACCAACATTGCTACGACCCGTATTCGCACCGACAC

>  <relative integration efficiency (log2)>
-2.05

$$$$
>  <INPUT SEQUENCE>
ACATTTGTTGATACAACCATAAAATGATAATTACACCCATAAATTGATAATTATCACACCCATAAATTGATATTGCCTGAGATCATAGTCAGACCAACATTGCTACGACCCGTATTCGCACCGACAC

>  <relative integration efficiency (log2)>
0.0616

$$$$
>  <INPUT SEQUENCE>
ACATTTGTTGATAGTTGGTATTTTACTATTAATGTGGGTATTTAACTATTAATTCAGTGGGTATTTAACTATAACGCTCTGATCATAGTCAGACCAACATTGCTACGACCCGTATTCGCACCGACAC

>  <relative integration efficiency (log2)>
-6.63

$$$$
>  <INPUT SEQUENCE>
ACATTTGTTGATACAACCATAAAATGATAATTAACACCCATAAATTGATAATTATCACACCCATAAATTGATATTGCCTCTGATCATAGTCAGACCAACATTGCTACGACCCGTATTCGCACCGACA

>  <relative integration efficiency (log2)>
-0.572

$$$$
>  <INPUT SEQUENCE>
ACATTTGTTGATACACCCATAAATTGATATTGCCAACCATAAGTTGATATTTTTCACAACCATAAGTTGATATTTTCTCTGATCATAGTCAGACCAACATTGCTACGACCCGTATTCGCACCGACAC

>  <relative integration efficiency (log2)>
-0.695

$$$$

* * *

System: VchCAST RNA-guided transposition machinery (E. coli BL21(DE3) host, lacZ target)
Assay: relative integration efficiency (T-LR orientation) vs wild-type transposon end (log2 (normalized fold change)); transposon end mutated: right end (5 bp flank + 75 bp right end); higher = more efficient transposition
MEASURED ENDPOINT: relative integration efficiency (log2)

>  <INPUT SEQUENCE>
ACATTTCTTCATACAACCATAAAATGATAATTACACCCATAAATTGATCATTATCACACCCAATTTAACTATAACGCTCTGATCATAGTCAGACCAACATTGCTACGACCCGTATTCGCACCGACAC

>  <OBSERVED MEASUREMENT>
-3.3

$$$$
>  <INPUT SEQUENCE>
ACATTTGTTGATACACCCATAAATTGATAATTACAACCATAAAGTGATATTTATCACAACCATATATTGATATCTCCTCTGATCATAGTCAGACCAACATTGCTACGACCCGTATTCGCACCGACAC

>  <OBSERVED MEASUREMENT>
0.318

$$$$
>  <INPUT SEQUENCE>
ACATTTGTTGATACAACCATATATTGATATCTCCAACCATAAGTTGATATTTTTCACAACCATAAAGTGATATTTACTCTGATCATAGTCAGACCAACATTGCTACGACCCGTATTCGCACCGACAC

>  <OBSERVED MEASUREMENT>
-0.0291

$$$$
>  <INPUT SEQUENCE>
ACATTTGTTTATACAACCATAAAATGATAATTACACCCATAAATGGATTATTATCACACCCAATTTAACTATAACGCTCTGATCATAGTCAGACCAACATTGCTACGACCCGTATTCGCACCGACAC

>  <OBSERVED MEASUREMENT>
-1.01

$$$$
>  <INPUT SEQUENCE>
ACATTTGGGGATACAACCATAAAATGATAATTACACCCATAAATTGATAATTATCACACCCATAAATTGATATTGCCTCTGATCATAGTCAGACCAACATTGCTACGACCCGTATTCGCACCGACAC

>  <OBSERVED MEASUREMENT>
-5.49

$$$$

* * *

System: VchCAST RNA-guided transposition machinery (E. coli BL21(DE3) host, lacZ target)
Assay: relative integration efficiency (T-RL orientation) vs wild-type transposon end (log2 (normalized fold change)); transposon end mutated: left end; higher = more efficient transposition
// relative integration efficiency (log2) lookup, one value per entry

>  <INPUT SEQUENCE>
AATGTTGTTGATGTAATTATCATTTTATGGTTGATAATTATTTATAATCAGCAACTTAACCACAAAACAACCATAAAATGATAATTAACAAAATAATTATCATTTTATGGTTGTGTGAATCGAGTATTTCAGCAAAACTACTGCAGTAAGAA

>  <relative integration efficiency (log2)>
-7.72

$$$$
>  <INPUT SEQUENCE>
AATGTTGTTGATGCAACCATAAAGTGATATTTAATAATTATTTATAATCAGCAACTTACAACCATATATTGATATCTCACAAAACAACCATAAGTTGATATTTTTGTGAATCGAGTATTTCAGCAAAACTACTGCAGTAAGAAAGTTACTTC

>  <relative integration efficiency (log2)>
-0.809

$$$$
>  <INPUT SEQUENCE>
AATGTTGTTGATGCAACCATAAAGTGATATTTACAACCATATATTGATATCTCACAAAACAACCATAAGTTGATATTTTATAATTATTTATAATCAGCAACTTAACCACAAAATGTGAATCGAGTATTTCAGCAAAACTACTGCAGTAAGAA

>  <relative integration efficiency (log2)>
-1.4

$$$$
>  <INPUT SEQUENCE>
AATGTTGTTGATGGTTGGTATTTCACTATAAATATAATTATTTATAATCAGCAACTTAACCACAAAACAACCATATATTGATATCTCACAAAACAACCATAAGTTGATATTTTTGTGAATCGAGTATTTCAGCAAAACTACTGCAGTAAGAA

>  <relative integration efficiency (log2)>
-6.55

$$$$
